Source listed as PubChem BioAssay AID2060513.

- System: 299254-011-R-J1-PDC complex spheroids viability
- protocol: Anticancer human tumor 299254-011-R-J1-PDC patient-derived melanoma cell line growth inhibition [GQUAD]
- applied conditions: second compound 0.316 µM; first compound 3.16 µM; stronger effect = lower value
Mark Satisfied only when viability, T/C stays strictly below 40%. Values equal to the cut-off are Not satisfied.

[[record]]
compound = "COc1cc(C2c3cc4c(cc3C(OC3OC5COC(C)OC5C(O)C3O)C3COC(=O)C23)OCO4)cc(OC)c1O (configuration not stated) + Cc1[nH]c2ccc(F)cc2c1-c1nc2c3cccnc3c3ncccc3c2[nH]1"
category = "Not satisfied"

[[record]]
compound = "CC1COCCN1c1cc(C2(O)CC3CCC(C2)O3)c2cnn(-c3ccn[nH]3)c2n1 (configuration not stated) + CN(C)c1ccc(Nc2c3ccc(NC(=O)CCN4CCCC4)cc3nc3cc(NC(=O)CCN4CCCC4)ccc23)cc1"
category = "Satisfied"

[[record]]
compound = "COc1ccc([C@@H](O)c2cc(-c3ncnc4cc(N5CCOCC5)ccc34)c(F)cc2Cl)nn1 + CN(C)c1ccc(Nc2c3ccc(NC(=O)CCN4CCCC4)cc3nc3cc(NC(=O)CCN4CCCC4)ccc23)cc1"
category = "Not satisfied"

[[record]]
compound = "CC(C)n1c(=O)n(C)c2cnc3cc(F)c(-c4ccc(OCCCN5CCCCC5)nc4)cc3c21 + Cc1cnc(CNC(=O)c2c(=O)c3ccc(N4CCCN(C)CC4)nc3n3c2sc2ccccc23)cn1"
category = "Not satisfied"

[[record]]
compound = "Nc1ccn(C2OC(CO)C(O)C2(F)F)c(=O)n1 (configuration not stated) + Cc1[nH]c2ccc(F)cc2c1-c1nc2c3cccnc3c3ncccc3c2[nH]1"
category = "Not satisfied"

[[record]]
compound = "COc1ccc([C@@H](O)c2cc(-c3ncnc4cc(N5CCOCC5)ccc34)c(F)cc2Cl)nn1 + Cc1[nH]c2ccc(F)cc2c1-c1nc2c3cccnc3c3ncccc3c2[nH]1"
category = "Not satisfied"

[[record]]
compound = "COc1cccc2c1C(=O)c1c(O)c3c(c(O)c1C2=O)CC(O)(C(=O)CO)CC3OC1CC(N)C(O)C(C)O1 (configuration not stated) + Cc1cnc(CNC(=O)c2c(=O)c3ccc(N4CCCN(C)CC4)nc3n3c2sc2ccccc23)cn1"
category = "Not satisfied"

[[record]]
compound = "CCCS(=O)(=O)Nc1ccc(F)c(C(=O)c2c[nH]c3ncc(-c4ccc(Cl)cc4)cc23)c1F + Cc1cnc(CNC(=O)c2c(=O)c3ccc(N4CCCN(C)CC4)nc3n3c2sc2ccccc23)cn1"
category = "Not satisfied"

[[record]]
compound = "CC1COCCN1c1cc(C2(O)CC3CCC(C2)O3)c2cnn(-c3ccn[nH]3)c2n1 (configuration not stated) + Cc1[nH]c2ccc(F)cc2c1-c1nc2c3cccnc3c3ncccc3c2[nH]1"
category = "Satisfied"

[[record]]
compound = "Cc1cccc(N(C)C(=O)C2C(O)CCN2c2nc(C)cc(C(F)(F)F)c2C#N)c1 (configuration not stated) + Cc1[nH]c2ccc(F)cc2c1-c1nc2c3cccnc3c3ncccc3c2[nH]1"
category = "Not satisfied"

[[record]]
compound = "O=C(NO)c1cnc(N2CCN(S(=O)(=O)c3ccc4ccccc4c3)CC2)nc1 + Cc1[nH]c2ccc(F)cc2c1-c1nc2c3cccnc3c3ncccc3c2[nH]1"
category = "Satisfied"


---

- System: 299254-011-R-J1-PDC complex spheroids viability
- protocol: Anticancer human tumor 299254-011-R-J1-PDC cell line growth inhibition [GQUAD];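 note: spheroids exposed to the agents for seven days before readout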;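 for viability, T/C: percent viability relative to DMSO vehicle control wells = 100%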
- applied conditions: second compound 10 µM; first compound 1 µM; stronger effect = lower value
- Description: DNA G-quadruplex Stabilizer Agents in Combinations in Complex Spheroids A high-throughput screen of multi-cell type tumor spheroids was designed to identify active combinations of DNA G-quadruplex stabilizer agents and targeted small molecules. […] Compounds. […] If the clinical Cmax for an agent had not been determined, the highest concentration tested was 10 microM. […]
reported metric: viability, T/C (%)

[[record]]
molecule = "C#Cc1c(F)ccc2cc(O)cc(-c3ncc4c(N5CC6CCC(C5)N6)nc(OCC56CCCN5CC(F)C6)nc4c3F)c12 (stereo not drawn) + Cc1[nH]c2ccc(F)cc2c1-c1nc2c3cccnc3c3ncccc3c2[nH]1"
reported_metric = "viability, T/C"
result_number = 99.1

[[record]]
molecule = "C=CCn1c(=O)c2cnc(Nc3ccc(N4CCN(C)CC4)cc3)nc2n1-c1cccc(C(C)(C)O)n1 + Cc1[nH]c2ccc(F)cc2c1-c1nc2c3cccnc3c3ncccc3c2[nH]1"
reported_metric = "viability, T/C"
result_number = 46.9

[[record]]
molecule = "C#Cc1c(F)ccc2cc(O)cc(-c3ncc4c(N5CC6CCC(C5)N6)nc(OCC56CCCN5CC(F)C6)nc4c3F)c12 (stereo not drawn) + CN(C)c1ccc(Nc2c3ccc(NC(=O)CCN4CCCC4)cc3nc3cc(NC(=O)CCN4CCCC4)ccc23)cc1"
reported_metric = "viability, T/C"
result_number = 87.8


---

- Tested on: 299254-011-R-J1-PDC complex spheroids viability
- protocol: Anticancer human tumor 299254-011-R-J1-PDC cell line growth inhibition [GQUAD];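 note: spheroids exposed to the agents for seven days before readout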;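 for viability, T/C: percent viability relative to DMSO vehicle control wells = 100%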
- applied conditions: second compound 0.1 µM; first compound 1 µM; stronger effect = lower value
// values below are reported viability, T/C
reported metric: viability, T/C (%)

[[record]]
compound = "Nc1ccn(C2OC(CO)C(O)C2(F)F)c(=O)n1 (stereo not drawn) + Cc1cnc(CNC(=O)c2c(=O)c3ccc(N4CCCN(C)CC4)nc3n3c2sc2ccccc23)cn1"
target_or_system = "299254-011-R-J1-PDC complex spheroids viability"
result_number = 48

[[record]]
compound = "COc1cc(C2c3cc4c(cc3C(OC3OC5COC(C)OC5C(O)C3O)C3COC(=O)C23)OCO4)cc(OC)c1O (stereo not drawn) + Cc1cnc(CNC(=O)c2c(=O)c3ccc(N4CCCN(C)CC4)nc3n3c2sc2ccccc23)cn1"
target_or_system = "299254-011-R-J1-PDC complex spheroids viability"
result_number = 87.9

[[record]]
compound = "C=CC(=O)N1CCN(c2nc(=O)n(-c3c(C)ccnc3C(C)C)c3nc(-c4c(O)cccc4F)c(F)cc23)C(C)C1 (stereo not drawn) + Cc1[nH]c2ccc(F)cc2c1-c1nc2c3cccnc3c3ncccc3c2[nH]1"
target_or_system = "299254-011-R-J1-PDC complex spheroids viability"
result_number = 56.7


---

- Test system: 299254-011-R-J1-PDC complex spheroids viability
- protocol: Anticancer human tumor 299254-011-R-J1-PDC cell line growth inhibition [GQUAD];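 note: spheroids exposed to the agents for seven days before readout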;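 for viability, T/C: percent viability relative to DMSO vehicle control wells = 100%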
- applied conditions: second compound 3.16 µM; first compound 10 µM; stronger effect = lower value
Mark Satisfied only when viability, T/C stays strictly below 20%. Values equal to the cut-off are Not satisfied.

[[record]]
compound = "COc1ccc([C@@H](O)c2cc(-c3ncnc4cc(N5CCOCC5)ccc34)c(F)cc2Cl)nn1 + Cc1[nH]c2ccc(F)cc2c1-c1nc2c3cccnc3c3ncccc3c2[nH]1"
target_or_system = "299254-011-R-J1-PDC complex spheroids viability"
category = "Not satisfied"

[[record]]
compound = "CC1COCCN1c1cc(-c2ccnn2C)c2ccnc(-c3ccn[nH]3)c2n1 (stereo not given) + CN(C)c1ccc(Nc2c3ccc(NC(=O)CCN4CCCC4)cc3nc3cc(NC(=O)CCN4CCCC4)ccc23)cc1"
target_or_system = "299254-011-R-J1-PDC complex spheroids viability"
category = "Satisfied"

[[record]]
compound = "CC1COCCN1c1cc(C2(S(C)(=N)=O)CC2)nc(-c2ccnc3[nH]ccc23)n1 (stereo not given) + CN(C)c1ccc(Nc2c3ccc(NC(=O)CCN4CCCC4)cc3nc3cc(NC(=O)CCN4CCCC4)ccc23)cc1"
target_or_system = "299254-011-R-J1-PDC complex spheroids viability"
category = "Not satisfied"

[[record]]
compound = "CC(C)(O)C1CCC(Nc2ccc3ncc(-c4cccc(C(F)(F)F)c4)n3n2)CC1 (stereo not given) + Cc1[nH]c2ccc(F)cc2c1-c1nc2c3cccnc3c3ncccc3c2[nH]1"
target_or_system = "299254-011-R-J1-PDC complex spheroids viability"
category = "Not satisfied"

[[record]]
compound = "CC1COCCN1c1cc(C2(S(C)(=N)=O)CC2)nc(-c2ccnc3[nH]ccc23)n1 (stereo not given) + Cc1cnc(CNC(=O)c2c(=O)c3ccc(N4CCCN(C)CC4)nc3n3c2sc2ccccc23)cn1"
target_or_system = "299254-011-R-J1-PDC complex spheroids viability"
category = "Satisfied"


---

// values below are reported IC50
- System: 299254-011-R-J1-PDC complex spheroids viability
- protocol: Anticancer human tumor 299254-011-R-J1-PDC cell line growth inhibition [GQUAD];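 note: spheroids exposed to the agents for seven days before readout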
- applied conditions: curve of first compound; second compound 0.1 µM
reported metric: IC50 (µM)

[[record]]
compound = "O=C(NO)c1cnc(N2CCN(S(=O)(=O)c3ccc4ccccc4c3)CC2)nc1 + Cc1[nH]c2ccc(F)cc2c1-c1nc2c3cccnc3c3ncccc3c2[nH]1"
result_modifier = "="
result_number = 0.602

[[record]]
compound = "CC[C@@]1(O)C(=O)OCc2c1cc1n(c2=O)Cc2cc3c(CN(C)C)c(O)ccc3nc2-1 + CN(C)c1ccc(Nc2c3ccc(NC(=O)CCN4CCCC4)cc3nc3cc(NC(=O)CCN4CCCC4)ccc23)cc1"
result_modifier = ">"
result_number = 0.316

[[record]]
compound = "CC1COCCN1c1cc(C2(S(C)(=N)=O)CC2)nc(-c2ccnc3[nH]ccc23)n1 (stereo not given) + Cc1cnc(CNC(=O)c2c(=O)c3ccc(N4CCCN(C)CC4)nc3n3c2sc2ccccc23)cn1"
result_modifier = "="
result_number = 2.48

[[record]]
compound = "CC1COCCN1c1cc(-c2ccnn2C)c2ccnc(-c3ccn[nH]3)c2n1 (stereo not given) + Cc1[nH]c2ccc(F)cc2c1-c1nc2c3cccnc3c3ncccc3c2[nH]1"
result_modifier = "="
result_number = 0.177

[[record]]
compound = "COc1ncnc(C2CC2)c1-c1ncc2cnn(Cc3ccc(-c4nc(C(F)(F)F)cn4C(C)C)cc3)c2n1 + Cc1[nH]c2ccc(F)cc2c1-c1nc2c3cccnc3c3ncccc3c2[nH]1"
result_modifier = ">"
result_number = 10

[[record]]
compound = "CC(C)(O)C1CCC(Nc2ccc3ncc(-c4cccc(C(F)(F)F)c4)n3n2)CC1 (stereo not given) + Cc1[nH]c2ccc(F)cc2c1-c1nc2c3cccnc3c3ncccc3c2[nH]1"
result_modifier = ">"
result_number = 10

[[record]]
compound = "COc1cccc2c1C(=O)c1c(O)c3c(c(O)c1C2=O)CC(O)(C(=O)CO)CC3OC1CC(N)C(O)C(C)O1 (stereo not given) + CN(C)c1ccc(Nc2c3ccc(NC(=O)CCN4CCCC4)cc3nc3cc(NC(=O)CCN4CCCC4)ccc23)cc1"
result_modifier = "="
result_number = 5.65

[[record]]
compound = "CC(=O)O[C@H]1C(=O)[C@@]2(C)[C@H]([C@H](OC(=O)c3ccccc3)[C@]3(O)C[C@H](OC(=O)[C@H](O)[C@@H](NC(=O)c4ccccc4)c4ccccc4)C(C)=C1C3(C)C)[C@]1(OC(C)=O)CO[C@@H]1C[C@@H]2O + Cc1cnc(CNC(=O)c2c(=O)c3ccc(N4CCCN(C)CC4)nc3n3c2sc2ccccc23)cn1"
result_modifier = "="
result_number = 0.243

[[record]]
compound = "COc1cc(C2c3cc4c(cc3C(OC3OC5COC(C)OC5C(O)C3O)C3COC(=O)C23)OCO4)cc(OC)c1O (stereo not given) + Cc1[nH]c2ccc(F)cc2c1-c1nc2c3cccnc3c3ncccc3c2[nH]1"
result_modifier = ">"
result_number = 10

[[record]]
compound = "CCc1c2c(nc3ccc(O)cc13)-c1cc3c(c(=O)n1C2)COC(=O)[C@]3(O)CC + CN(C)c1ccc(Nc2c3ccc(NC(=O)CCN4CCCC4)cc3nc3cc(NC(=O)CCN4CCCC4)ccc23)cc1"
result_modifier = ">"
result_number = 0.316

